tgt: mouse serum albumin (MSA) (Mus musculus, UniProt P07724)
Sequence (P07724 25-608): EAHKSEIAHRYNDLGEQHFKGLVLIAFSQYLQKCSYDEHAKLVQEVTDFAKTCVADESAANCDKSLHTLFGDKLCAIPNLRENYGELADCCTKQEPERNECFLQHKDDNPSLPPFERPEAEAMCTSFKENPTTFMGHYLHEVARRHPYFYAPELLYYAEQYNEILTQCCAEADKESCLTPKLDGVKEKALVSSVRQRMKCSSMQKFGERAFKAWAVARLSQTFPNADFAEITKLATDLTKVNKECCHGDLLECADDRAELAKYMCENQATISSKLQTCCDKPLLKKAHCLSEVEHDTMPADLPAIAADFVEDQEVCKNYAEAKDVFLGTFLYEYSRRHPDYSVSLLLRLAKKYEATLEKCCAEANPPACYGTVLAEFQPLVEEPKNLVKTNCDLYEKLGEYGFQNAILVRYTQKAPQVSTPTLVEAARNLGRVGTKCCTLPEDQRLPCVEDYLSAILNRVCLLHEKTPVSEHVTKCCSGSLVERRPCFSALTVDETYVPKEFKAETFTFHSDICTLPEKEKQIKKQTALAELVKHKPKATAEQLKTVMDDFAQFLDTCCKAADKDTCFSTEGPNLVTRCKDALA
procedure.details: Presaturation equilibrium dialysis, fraction unbound in mouse serum albumin solution
settings: mouse, 4% mouse serum albumin (MSA) solution, Fraction Unbound (fu) and Coefficient of Variance (CV), MSA, 4% mouse serum albumin in PBS, 5 μM PFAS, value (CV)
Procedure: The equilibrium dialysis device (EQD) HTD96 (Gales Ferry, CT, USA) was assembled according to manufacturer instructions. […] Each PFAS:matrix combination was assessed in quadruplicate. […] LC-MS/MS analyses were performed on a SCIEX Triple Quad 5500 mass spectrometer (SCIEX, Concord, ON, Canada) equipped with Turbo Ion Spray interface. […] Multiple-reaction-monitoring (MRM) mode using specific precursor/product ion transitions was used for quantification. […]
readout.type: fraction unbound at 18 h, 5 µM

[[record]]
compound = "O=S(=O)(O)C(F)(F)C(F)(F)C(F)(F)C(F)(F)C(F)(F)C(F)(F)F"
obs_value = 0.00225

[[record]]
compound = "O=C(O)C(F)(F)C(F)(F)C(F)(F)C(F)(F)C(F)(F)C(F)(F)C(F)(F)F"
obs_value = 0.00513

[[record]]
compound = "O=C(O)C(F)(F)C(F)(F)C(F)(F)C(F)(F)C(F)(F)C(F)(F)C(F)(F)C(F)(F)C(F)(F)C(F)(F)C(F)(F)F"
obs_value = 0.000217


# evaluate next
Recorded result, NS(=O)(=O)C(F)(F)C(F)(F)C(F)(F)C(F)(F)C(F)(F)C(F)(F)C(F)(F)C(F)(F)F [PFOSA, perfluorooctanesulfonamide] , fraction unbound at 18 h, 5 µM: 0.00127

###

tgt: human serum albumin (HSA) (Homo sapiens, UniProt P02768)
Construct: purchased Sigma-Aldrich
Sequence (P02768 25-609): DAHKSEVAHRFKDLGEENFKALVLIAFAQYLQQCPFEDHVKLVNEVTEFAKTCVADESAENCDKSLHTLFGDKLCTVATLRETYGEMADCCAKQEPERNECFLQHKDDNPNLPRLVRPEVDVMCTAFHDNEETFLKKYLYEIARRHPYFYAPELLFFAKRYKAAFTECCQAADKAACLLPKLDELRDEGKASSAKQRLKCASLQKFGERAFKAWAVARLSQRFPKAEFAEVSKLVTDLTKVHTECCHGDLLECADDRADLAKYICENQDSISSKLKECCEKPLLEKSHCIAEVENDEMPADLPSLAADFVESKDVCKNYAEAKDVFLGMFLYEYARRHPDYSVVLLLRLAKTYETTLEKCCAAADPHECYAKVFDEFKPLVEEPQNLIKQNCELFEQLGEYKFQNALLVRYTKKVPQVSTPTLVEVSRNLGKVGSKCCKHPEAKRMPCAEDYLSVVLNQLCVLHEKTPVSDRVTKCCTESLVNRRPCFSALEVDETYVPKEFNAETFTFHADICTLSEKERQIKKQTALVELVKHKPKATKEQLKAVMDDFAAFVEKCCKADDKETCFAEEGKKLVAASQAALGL
procedure.details: Presaturation equilibrium dialysis, fraction unbound in human serum albumin solution
Format: in vitro ADME
settings: 4% human serum albumin (HSA) solution; 4% human serum albumin in PBS, value (CV); read-out: Fraction Unbound (fu) and Coefficient of Variance (CV), HSA
readout.type: fraction unbound at 18 h
Give bare numbers.

Recorded result, NS(=O)(=O)C(F)(F)C(F)(F)C(F)(F)C(F)(F)C(F)(F)C(F)(F)C(F)(F)C(F)(F)F [PFOSA, perfluorooctanesulfonamide] , fraction unbound at 18 h: 0.00152

###

tgt: mouse serum albumin (MSA) (Mus musculus, UniProt P07724)
procedure.details: Presaturation equilibrium dialysis, fraction unbound in mouse serum albumin solution
settings: 3% mouse serum albumin, value (%CV)
readout.type: Fraction unbound (fu) and %CV, MSA 3%

Past entries and their recorded results:
[[record]]
compound = "O=C(O)C(F)(F)C(F)(F)C(F)(F)C(F)(F)C(F)(F)F [PFHxA, perfluorohexanoic acid]"
obs_value = "0.0266 (11%)"

[[record]]
compound = "O=C(O)C(F)(F)C(F)(F)C(F)(F)C(F)(F)C(F)(F)C(F)(F)C(F)(F)C(F)(F)F [PFNA, perfluorononanoic acid]"
obs_value = "0.00292 (6%)"


# evaluate next
Recorded result, O=C(O)C(F)(F)C(F)(F)C(F)(F)C(F)(F)C(F)(F)C(F)(F)C(F)(F)C(F)(F)C(F)(F)C(F)(F)F [PFUDA, perfluoroundecanoic acid] , Fraction unbound (fu) and %CV, MSA 3%: 0.000417 (19%)

###

Please provide measured Fraction Unbound (fu) and Coefficient of Variance (CV), Rat Plasma for the entries that follow.
Tested on: rat (Wistar-Han) plasma
procedure.details: Presaturation equilibrium dialysis, fraction unbound in rat plasma
Type: in vitro ADME
settings: 5 μM PFAS, 18 h, 37 °C, value (CV)

Past entries and their recorded results:
[[record]]
compound = "O=S(=O)(O)CCC(F)(F)C(F)(F)C(F)(F)C(F)(F)C(F)(F)C(F)(F)F [6:2 FtS, 6:2 fluorotelomer sulfonate]"
tgt = "rat (Wistar-Han) plasma"
obs_value = "0.0236(4%)"

[[record]]
compound = "O=C(O)C(F)(F)C(F)(F)C(F)(F)C(F)(F)C(F)(F)C(F)(F)C(F)(F)C(F)(F)C(F)(F)F"
tgt = "rat (Wistar-Han) plasma"
obs_value = "0.001(9%)"

[[record]]
compound = "O=C(O)C(F)(F)C(F)(F)C(F)(F)F"
tgt = "rat (Wistar-Han) plasma"
obs_value = "0.37(24%)"

[[record]]
compound = "O=S(=O)(O)C(F)(F)C(F)(F)C(F)(F)C(F)(F)C(F)(F)C(F)(F)C(F)(F)C(F)(F)F"
tgt = "rat (Wistar-Han) plasma"
obs_value = "0.00109(4%)"

[[record]]
compound = "O=S(=O)(O)C(F)(F)C(F)(F)C(F)(F)C(F)(F)F"
tgt = "rat (Wistar-Han) plasma"
obs_value = "0.0542(3%)"

[[record]]
compound = "O=C(O)C(F)(F)C(F)(F)C(F)(F)C(F)(F)C(F)(F)C(F)(F)C(F)(F)C(F)(F)F"
tgt = "rat (Wistar-Han) plasma"
obs_value = "0.0021(6%)"

[[record]]
compound = "O=C(O)C(F)(F)C(F)(F)C(F)(F)C(F)(F)C(F)(F)F"
tgt = "rat (Wistar-Han) plasma"
obs_value = "0.0358(7%)"

[[record]]
compound = "O=C(O)C(F)(F)C(F)(F)C(F)(F)C(F)(F)F"
tgt = "rat (Wistar-Han) plasma"
obs_value = "0.18(2%)"


# evaluate next
Recorded result, O=C(O)C(F)(F)C(F)(F)C(F)(F)C(F)(F)C(F)(F)C(F)(F)C(F)(F)C(F)(F)C(F)(F)C(F)(F)F , Fraction Unbound (fu) and Coefficient of Variance (CV), Rat Plasma: 0.000349(20%)

###

tgt: rat serum albumin (RSA) (Rattus norvegicus)
Sequence (P02770 25-608): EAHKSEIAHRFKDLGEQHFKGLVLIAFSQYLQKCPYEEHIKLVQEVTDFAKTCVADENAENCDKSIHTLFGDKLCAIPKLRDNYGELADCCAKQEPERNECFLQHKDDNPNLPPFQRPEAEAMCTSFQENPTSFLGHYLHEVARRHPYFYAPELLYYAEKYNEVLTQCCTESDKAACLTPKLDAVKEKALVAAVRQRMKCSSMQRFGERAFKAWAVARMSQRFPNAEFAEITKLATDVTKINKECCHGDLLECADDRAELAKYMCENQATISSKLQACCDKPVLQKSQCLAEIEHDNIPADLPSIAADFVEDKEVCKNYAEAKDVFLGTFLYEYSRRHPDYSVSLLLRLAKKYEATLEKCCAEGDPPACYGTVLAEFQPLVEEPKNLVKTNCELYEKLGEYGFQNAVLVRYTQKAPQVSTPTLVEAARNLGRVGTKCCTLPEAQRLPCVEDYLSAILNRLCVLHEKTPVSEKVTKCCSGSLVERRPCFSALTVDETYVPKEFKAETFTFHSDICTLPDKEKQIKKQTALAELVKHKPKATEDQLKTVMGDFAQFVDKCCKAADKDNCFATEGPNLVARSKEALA
procedure.details: Presaturation equilibrium dialysis, fraction unbound in rat serum albumin solution
settings: 3% rat serum albumin, value (%CV)
Please provide measured Fraction unbound (fu) and %CV, RSA 3% for the entries that follow.

Past entries and their recorded results:
[[record]]
compound = "O=C(O)C(F)(F)C(F)(F)C(F)(F)C(F)(F)C(F)(F)C(F)(F)C(F)(F)C(F)(F)F [PFNA, perfluorononanoic acid]"
readout_type = "Fraction unbound (fu) and %CV, RSA 3%"
obs_value = "0.00217 (2%)"

[[record]]
compound = "O=C(O)C(F)(F)C(F)(F)C(F)(F)C(F)(F)C(F)(F)C(F)(F)C(F)(F)C(F)(F)C(F)(F)C(F)(F)F [PFUDA, perfluoroundecanoic acid]"
readout_type = "Fraction unbound (fu) and %CV, RSA 3%"
obs_value = "0.000147 (28%)"

[[record]]
compound = "O=C(O)C(F)(F)C(F)(F)C(F)(F)C(F)(F)C(F)(F)F [PFHxA, perfluorohexanoic acid]"
readout_type = "Fraction unbound (fu) and %CV, RSA 3%"
obs_value = "0.0212 (4%)"

[[record]]
compound = "O=S(=O)(O)C(F)(F)C(F)(F)C(F)(F)C(F)(F)C(F)(F)C(F)(F)C(F)(F)C(F)(F)F [PFOS, perfluorooctanesulfonic acid]"
readout_type = "Fraction unbound (fu) and %CV, RSA 3%"
obs_value = "0.000697 (25%)"

[[record]]
compound = "O=C(O)C(F)(F)C(F)(F)C(F)(F)C(F)(F)C(F)(F)C(F)(F)C(F)(F)C(F)(F)C(F)(F)F [PFDA, perfluorodecanoic acid]"
readout_type = "Fraction unbound (fu) and %CV, RSA 3%"
obs_value = "0.000494 (19%)"

[[record]]
compound = "O=C(O)C(F)(F)C(F)(F)C(F)(F)C(F)(F)F [PFPA, perfluoropentanoic acid]"
readout_type = "Fraction unbound (fu) and %CV, RSA 3%"
obs_value = "0.0769 (4%)"

[[record]]
compound = "O=S(=O)(O)C(F)(F)C(F)(F)C(F)(F)C(F)(F)F [PFBS, perfluorobutanesulfonic acid]"
readout_type = "Fraction unbound (fu) and %CV, RSA 3%"
obs_value = "0.0168 (8%)"

[[record]]
compound = "O=C(O)C(F)(F)C(F)(F)C(F)(F)F [PFBA, Perfluorobutanoic acid]"
readout_type = "Fraction unbound (fu) and %CV, RSA 3%"
obs_value = "0.18 (3%)"


# evaluate next
Recorded result, O=S(=O)(O)CCC(F)(F)C(F)(F)C(F)(F)C(F)(F)C(F)(F)C(F)(F)F [6:2 FtS, 6:2 fluorotelomer sulfonate] , Fraction unbound (fu) and %CV, RSA 3%: 0.00892 (4%)

###

tgt: mouse serum albumin (MSA) (Mus musculus, UniProt P07724)
procedure.details: Presaturation equilibrium dialysis, fraction unbound in mouse serum albumin solution
settings: 4% mouse serum albumin in PBS, 5 μM PFAS, value (CV)
readout.type: Fraction Unbound (fu) and Coefficient of Variance (CV), MSA

[[record]]
compound_structure_string = "O=C(O)C(F)(F)C(F)(F)C(F)(F)C(F)(F)C(F)(F)C(F)(F)C(F)(F)C(F)(F)F"
tgt = "mouse serum albumin (MSA) (Mus musculus, UniProt P07724)"
obs_value = "0.00364(6%)"

[[record]]
compound_structure_string = "O=C(O)C(F)(F)C(F)(F)C(F)(F)C(F)(F)C(F)(F)F"
tgt = "mouse serum albumin (MSA) (Mus musculus, UniProt P07724)"
obs_value = "0.0329(11%)"


# evaluate next
Recorded result, O=C(O)C(F)(F)C(F)(F)C(F)(F)C(F)(F)C(F)(F)C(F)(F)C(F)(F)C(F)(F)C(F)(F)C(F)(F)F , Fraction Unbound (fu) and Coefficient of Variance (CV), MSA: 0.000513(19%)
